test: Dabigatran plasma pharmacokinetics; type: in vivo, human; details: both, human, plasma, oral
measure: AUC(0-inf) (ng·h/mL)
The response must be a number in ng·h/mL with no trailing unit.

response.value for [H]/N=C(/N)c1ccc(NCc2nc3cc(C(=O)N(CCC(=O)O)c4ccccn4)ccc3n2C)cc1 [dabigatran] (field: AUC(0-inf)) = 592

---

experiment: Dabigatran plasma pharmacokinetics; type: in vivo, human; settings: both, human, plasma, po, 220 mg
measure: Cmax (µg/mL)
The response must be a number in µg/mL with no trailing unit.

response.value for [H]/N=C(/N)c1ccc(NCc2nc3cc(C(=O)N(CCC(=O)O)c4ccccn4)ccc3n2C)cc1 [dabigatran] (field: Cmax) = 0.0907

---

test: Dabigatran plasma pharmacokinetics; type: in vivo, human; settings: both, human, plasma, oral
measure: Cmax (ng/mL)
The response must be a number in ng/mL with no trailing unit.

response.value for [H]/N=C(/N)c1ccc(NCc2nc3cc(C(=O)N(CCC(=O)O)c4ccccn4)ccc3n2C)cc1 (field: Cmax) = 78.4

---

experiment: Dabigatran plasma pharmacokinetics; format: in vivo, human; conditions: both, human, plasma, po, 220 mg
measure: AUC(0-inf) (ng·h/mL)
The response must be a number in ng·h/mL with no trailing unit.

response.value for [H]/N=C(/N)c1ccc(NCc2nc3cc(C(=O)N(CCC(=O)O)c4ccccn4)ccc3n2C)cc1 (field: AUC(0-inf)) = 700
